# Tested on: Escherichia coli TOP10
# protocol summary: shrunken log2 fold change of peptide-encoding DNA abundance (4.5 h post-induction vs induction); higher = less antimicrobial activity (less host growth inhibition)
# reported conditions: time post-induction: 4.5 h; library: site-saturation at positions 5, 18, 19, 20
This listing pairs sequences with measured shrunken log2 fold change.

| residue string | shrunken log2 fold change |
| --- | --- |
| RRIRTRPPRLPRPRPRPADDPRP | 0.165 |
| RRIRTRPPRLPRPRPRPQWVPRP | 0.143 |
| RRIRIRPPRLPRPRPRPILNPRP | -0.73 |
| RRIRCRPPRLPRPRPRPCTSPRP | -0.647 |
| RRIRQRPPRLPRPRPRPGLNPRP | -0.129 |
| RRIRSRPPRLPRPRPRPMYCPRP | 0.0069 |
| RRIRERPPRLPRPRPRPNQMPRP | -0.0733 |
| RRIRLRPPRLPRPRPRPTYWPRP | -0.256 |
| RRIRARPPRLPRPRPRPYILPRP | -0.983 |
| RRIRSRPPRLPRPRPRPNVPPRP | -0.131 |
| RRIRRRPPRLPRPRPRPLFHPRP | 0.0745 |
| RRIRIRPPRLPRPRPRPFQQPRP | -0.0967 |
| RRIRRRPPRLPRPRPRPTEVPRP | 0.238 |
| RRIRWRPPRLPRPRPRPRIQPRP | 0.273 |
| RRIRKRPPRLPRPRPRPKEGPRP | 0.0503 |
| RRIRPRPPRLPRPRPRPEINPRP | -0.264 |
| RRIRQRPPRLPRPRPRPVTYPRP | -0.219 |
| RRIRGRPPRLPRPRPRPHLQPRP | 0.479 |
| RRIRERPPRLPRPRPRPSGPPRP | -0.203 |
| RRIRYRPPRLPRPRPRPHDWPRP | -0.0744 |
| RRIRRRPPRLPRPRPRPSMTPRP | 0.315 |
| RRIRHRPPRLPRPRPRPNRAPRP | -0.0865 |
| RRIRGRPPRLPRPRPRPGWHPRP | 0.277 |

* * *

# Tested on: Escherichia coli TOP10
# protocol summary: shrunken log2 fold change of peptide-encoding DNA abundance (4.5 h post-induction vs induction); higher = less antimicrobial activity (less host growth inhibition)
# reported conditions: time post-induction: 4.5 h; library: site-saturation at positions 5, 18, 19, 20

| residue string | test target | shrunken log2 fold change |
| --- | --- | --- |
| RRIRIRPPRLPRPRPRPNEWPRP | Escherichia coli TOP10 | -0.00088 |
| RRIRERPPRLPRPRPRPGRQPRP | Escherichia coli TOP10 | 0.0676 |
| RRIRARPPRLPRPRPRPYRPPRP | Escherichia coli TOP10 | -0.179 |
| RRIRPRPPRLPRPRPRPQNCPRP | Escherichia coli TOP10 | -0.621 |

* * *

# Tested on: Escherichia coli TOP10
# protocol summary: shrunken log2 fold change of peptide-encoding DNA abundance (4.5 h post-induction vs induction); higher = less antimicrobial activity (less host growth inhibition)
# reported conditions: time post-induction: 4.5 h; library: site-saturation at positions 5, 18, 19, 20
So basically: shrunken log2 fold change at -0.1 or higher? That is 1. Lower than -0.1? That is 0.

| residue string | test target | group |
| --- | --- | --- |
| RRIRVRPPRLPRPRPRPLWCPRP | Escherichia coli TOP10 | 0 |
| RRIRNRPPRLPRPRPRPTYQPRP | Escherichia coli TOP10 | 1 |
| RRIRIRPPRLPRPRPRPAYRPRP | Escherichia coli TOP10 | 0 |
| RRIRGRPPRLPRPRPRPFYFPRP | Escherichia coli TOP10 | 1 |
| RRIRHRPPRLPRPRPRPSYYPRP | Escherichia coli TOP10 | 0 |
| RRIRFRPPRLPRPRPRPRLVPRP | Escherichia coli TOP10 | 1 |
| RRIRHRPPRLPRPRPRPITWPRP | Escherichia coli TOP10 | 0 |

* * *

# Test system: Escherichia coli TOP10;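 also: peptides expressed intracellularly from a pBAD plasmid library in pooled LB shake-flask culture, induced with 0.3% L-arabinose, DNA abundance read by NGS, three biological replicates, DESeq2 with apeglm shrinkage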
# protocol summary: shrunken log2 fold change of peptide-encoding DNA abundance (4.5 h post-induction vs induction); higher = less antimicrobial activity (less host growth inhibition)
# reported conditions: time post-induction: 4.5 h; library: site-saturation at positions 5, 18, 19, 20
So basically: shrunken log2 fold change at 0.2 or higher? That is Criterion met. Lower than 0.2? That is Criterion not met.

| residue string | test target | group |
| --- | --- | --- |
| RRIRLRPPRLPRPRPRPADKPRP | Escherichia coli TOP10 | Criterion not met |
| RRIRKRPPRLPRPRPRPECSPRP | Escherichia coli TOP10 | Criterion met |
| RRIRPRPPRLPRPRPRPNFKPRP | Escherichia coli TOP10 | Criterion not met |
| RRIRLRPPRLPRPRPRPFAAPRP | Escherichia coli TOP10 | Criterion met |
| RRIRIRPPRLPRPRPRPFKRPRP | Escherichia coli TOP10 | Criterion not met |
| RRIRIRPPRLPRPRPRPSLWPRP | Escherichia coli TOP10 | Criterion met |
| RRIRERPPRLPRPRPRPCMNPRP | Escherichia coli TOP10 | Criterion not met |
| RRIRHRPPRLPRPRPRPLWKPRP | Escherichia coli TOP10 | Criterion not met |
| RRIRDRPPRLPRPRPRPHAAPRP | Escherichia coli TOP10 | Criterion met |
| RRIRNRPPRLPRPRPRPAHRPRP | Escherichia coli TOP10 | Criterion met |
| RRIRYRPPRLPRPRPRPFNYPRP | Escherichia coli TOP10 | Criterion not met |
| RRIRARPPRLPRPRPRPKSEPRP | Escherichia coli TOP10 | Criterion met |
| RRIRIRPPRLPRPRPRPAATPRP | Escherichia coli TOP10 | Criterion not met |
| RRIRMRPPRLPRPRPRPEPDPRP | Escherichia coli TOP10 | Criterion met |
| RRIRTRPPRLPRPRPRPTCTPRP | Escherichia coli TOP10 | Criterion not met |
| RRIRGRPPRLPRPRPRPCSQPRP | Escherichia coli TOP10 | Criterion not met |
| RRIRRRPPRLPRPRPRPTRAPRP | Escherichia coli TOP10 | Criterion met |
| RRIRDRPPRLPRPRPRPAQSPRP | Escherichia coli TOP10 | Criterion met |
| RRIRSRPPRLPRPRPRPFIGPRP | Escherichia coli TOP10 | Criterion not met |
| RRIRIRPPRLPRPRPRPMYKPRP | Escherichia coli TOP10 | Criterion not met |
| RRIRDRPPRLPRPRPRPNGEPRP | Escherichia coli TOP10 | Criterion not met |
| RRIRCRPPRLPRPRPRPQYIPRP | Escherichia coli TOP10 | Criterion not met |
| RRIRFRPPRLPRPRPRPMDSPRP | Escherichia coli TOP10 | Criterion not met |
| RRIRARPPRLPRPRPRPKTCPRP | Escherichia coli TOP10 | Criterion not met |
| RRIRRRPPRLPRPRPRPKTIPRP | Escherichia coli TOP10 | Criterion not met |
| RRIRTRPPRLPRPRPRPYKDPRP | Escherichia coli TOP10 | Criterion not met |
| RRIRFRPPRLPRPRPRPFDDPRP | Escherichia coli TOP10 | Criterion not met |
| RRIRVRPPRLPRPRPRPMHFPRP | Escherichia coli TOP10 | Criterion not met |
| RRIRERPPRLPRPRPRPEERPRP | Escherichia coli TOP10 | Criterion not met |
| RRIRPRPPRLPRPRPRPDNWPRP | Escherichia coli TOP10 | Criterion not met |
| RRIRTRPPRLPRPRPRPIVIPRP | Escherichia coli TOP10 | Criterion not met |
| RRIRLRPPRLPRPRPRPNTDPRP | Escherichia coli TOP10 | Criterion not met |
| RRIRGRPPRLPRPRPRPSMDPRP | Escherichia coli TOP10 | Criterion not met |
| RRIRNRPPRLPRPRPRPNYLPRP | Escherichia coli TOP10 | Criterion not met |
| RRIRTRPPRLPRPRPRPYNWPRP | Escherichia coli TOP10 | Criterion not met |
| RRIRKRPPRLPRPRPRPGEYPRP | Escherichia coli TOP10 | Criterion not met |
| RRIRYRPPRLPRPRPRPWAPPRP | Escherichia coli TOP10 | Criterion not met |
| RRIRCRPPRLPRPRPRPSTYPRP | Escherichia coli TOP10 | Criterion not met |
| RRIRFRPPRLPRPRPRPDCAPRP | Escherichia coli TOP10 | Criterion not met |
| RRIRPRPPRLPRPRPRPNENPRP | Escherichia coli TOP10 | Criterion not met |
| RRIRDRPPRLPRPRPRPAWSPRP | Escherichia coli TOP10 | Criterion not met |
| RRIRYRPPRLPRPRPRPFKAPRP | Escherichia coli TOP10 | Criterion not met |
| RRIRNRPPRLPRPRPRPQMEPRP | Escherichia coli TOP10 | Criterion not met |
| RRIRPRPPRLPRPRPRPKDEPRP | Escherichia coli TOP10 | Criterion met |
| RRIRYRPPRLPRPRPRPHNPPRP | Escherichia coli TOP10 | Criterion not met |
| RRIRDRPPRLPRPRPRPATPPRP | Escherichia coli TOP10 | Criterion met |
| RRIRPRPPRLPRPRPRPVFDPRP | Escherichia coli TOP10 | Criterion met |
| RRIRARPPRLPRPRPRPMKDPRP | Escherichia coli TOP10 | Criterion not met |
| RRIRLRPPRLPRPRPRPHLCPRP | Escherichia coli TOP10 | Criterion not met |
| RRIRGRPPRLPRPRPRPCLTPRP | Escherichia coli TOP10 | Criterion met |
| RRIRIRPPRLPRPRPRPKESPRP | Escherichia coli TOP10 | Criterion not met |
| RRIRQRPPRLPRPRPRPGLTPRP | Escherichia coli TOP10 | Criterion not met |

src = the supplement of paper PMC9112550
